Each record here notes measured Difference Score.
- Tested on: S1-M1-3.2 cells
- Settings: S1-M1-3.2 cells, drug 0.1 μM; survival alone minus survival with 3.2 μM mitoxantrone
In your answer, state the number alone without any accompanying words.

# example entries with known answers
Molecule: COc1ccc(C(C#N)(CCCCCN2CCc3cc(OC)c(OC)cc3C2)Sc2ccc(C)cc2)cc1OC (stereo not shown) [reference compound]
Difference Score: 0

Molecule: COc1ccc2c3c4n(c2c1)[C@@H](C=C(C)C)OOC(C)(C)C[C@@H]4N1C(=O)[C@@H]2CCCN2C(=O)[C@]1(O)[C@H]3OCC=C(C)C [Fumitremorgin A]
Difference Score: −1

Molecule: COc1ccc2c3c([nH]c2c1)[C@H](C=C(C)C)N1C(=O)[C@@H]2CCCN2C(=O)[C@@H]1C3 [Fumitremorgin C]
Difference Score: 10

Consider the molecule COc1ccc2c3c(n(CC=C(C)C)c2c1)[C@H](C=C(C)C)N1C(=O)[C@@H]2CCCN2C(=O)[C@]1(O)[C@H]3O [Fumitremorgin B] and give its measured Difference Score.
3
